Cited source: ChEMBL document CHEMBL1147875

Tested on: Mus musculus
Method summary: Effect on bleeding time in ICR mouse tail at 1.3 mmol/kg, ip after 60 mins
Assay type: functional
The following compounds are shown together with reported TIME values.
Provide only the numeric value, understood in h.

Worked cases, answers included:
Query smiles: CC1(C)N=C(c2ccc(Br)cc2)N([O])C1(C)C
Measured number: 0.0326
--
Query smiles: CC1(C)N=C(c2ccc(Cl)cc2)N([O])C1(C)C
Measured number: 0.0326
--
Query smiles: CC1(C)N=C(c2cccc(O)c2)N([O])C1(C)C
Measured number: 0.0326
--
Query smiles: CC1(C)N=C(c2cccc([N+](=O)[O-])c2)N([O])C1(C)C
Measured number: 0.0328
--
Query smiles: CC1(C)N=C(c2ccc(Cl)c(Cl)c2)N([O])C1(C)C
Measured number: 0.033
--
Query smiles: CC1(C)N=C(c2ccccc2F)N([O])C1(C)C
Measured number: 0.0326
--
Query smiles: CN(C)c1ccc(C2=NC(C)(C)C(C)(C)N2[O])cc1
Measured number: 0.0327
--
Query smiles: CC1(C)N=C(c2ccc(Cl)cc2Cl)N([O])C1(C)C
Measured number: 0.0327
--
Query smiles: CC1(C)N=C(c2ccc([N+](=O)[O-])cc2)N([O])C1(C)C
Measured number: 0.033
--
Query smiles: CC1(C)N=C(c2ccccc2[N+](=O)[O-])N([O])C1(C)C
Measured number: 0.0324

Recorded TIME for CC1(C)N=C(c2ccc3c(c2)OCO3)N([O])C1(C)C , please?
0.0324

GET /values?readout=TIME&item= CC1(C)N=C(c2ccc(O)cc2)N([O])C1(C)C
0.0327

Recorded TIME of COc1ccc(C2=NC(C)(C)C(C)(C)N2[O])cc1 , please.
0.0331

Sample Cc1ccc(C2=NC(C)(C)C(C)(C)N2[O])cc1 — what was its TIME?
0.0328

Which TIME is reported for this compound? COc1cc(C2=NC(C)(C)C(C)(C)N2[O])ccc1O
0.0329

Reported TIME, compound COc1ccc(C2=NC(C)(C)C(C)(C)N2[O])c(OC)c1 : ____
0.0328

I have this compound here, COc1ccc(C2=NC(C)(C)C(C)(C)N2[O])cc1OC , and I need its recorded TIME.
0.0335

Quick check: TIME of CC1(C)N=C(c2ccccc2O)N([O])C1(C)C ?
0.0324

What measured TIME goes with COc1ccc(C2=NC(C)(C)C(C)(C)N2[O])cc1O ?
0.0326
